// data source = patent US20080008707A1

binders and their reported % inhibition of HUI77 binding to dn-collagen IV, peptide 10 µM
assay.system: HUI77, murine IgM anti-denatured-collagen monoclonal antibody
test.protocol: competition ELISA on coated dn-collagen IV
Square brackets hold non-standard residues; d marks the D form. Ends that are not written are not given here. Hyp = O=C(O)[C@@H]1C[C@@H](O)CN1
Numeric answer only, unit % assumed.

Record excerpt, results attached:
- binder: "LPGP[Hyp]GP[Hyp]GP [synthetic peptide No. 5, … (SEQ ID NO: 20)]"
  value.observed: 10
- binder: "PGP[Hyp]GP[Hyp]GPY [synthetic peptide No. 4, … (SEQ ID NO: 28)]"
  value.observed: 7

[ask] Any idea what % inhibition of HUI77 binding to dn-collagen IV, peptide 10 µM was measured for F[Hyp]GP[Hyp]GPDGL[Hyp]GSMGP[Hyp]G [synthetic peptide No. 7, … (SEQ ID NO: 36)] ?
[reply] 4.5

[ask] Any idea what % inhibition of HUI77 binding to dn-collagen IV, peptide 10 µM was measured for LPGFPGC (also: hydroxyproline marking, if any, lost) [synthetic peptide No. 9, LPGFPGC (SEQ ID NO: 37)] ?
[reply] 7

[ask] Any idea what % inhibition of HUI77 binding to dn-collagen IV, peptide 10 µM was measured for LPGP[Hyp]GP[Hyp]G [synthetic peptide No. 20, … (SEQ ID NO: 21)] ?
[reply] 6.5

[ask] Any idea what % inhibition of HUI77 binding to dn-collagen IV, peptide 10 µM was measured for L[Hyp]GS[Hyp]G [synthetic peptide No. 10, LPGSPG (SEQ ID NO: 26)] ?
[reply] 8

[ask] Any idea what % inhibition of HUI77 binding to dn-collagen IV, peptide 10 µM was measured for L[Hyp]GF[Hyp]G [synthetic peptide No. 19, LPGFPG (SEQ ID NO: 23)] ?
[reply] 7

[ask] Any idea what % inhibition of HUI77 binding to dn-collagen IV, peptide 10 µM was measured for [Hyp]GAKGLPGP [synthetic peptide No. 13, … (SEQ ID NO: 17)] ?
[reply] 8

[ask] Any idea what % inhibition of HUI77 binding to dn-collagen IV, peptide 10 µM was measured for [Hyp]GAKGLPGP[Hyp]GP[Hyp]GPY [synthetic peptide No. 12, … (SEQ ID NO: 2)] ?
[reply] 7.5

[ask] Any idea what % inhibition of HUI77 binding to dn-collagen IV, peptide 10 µM was measured for GPXGPXGP (hydroxyproline at the P positions marked in Tables 13 and 14; marking lost in this text) [synthetic peptide No. 17, GPPGPPGP (SEQ ID NO: 31)] ?
[reply] 7.5

[ask] Any idea what % inhibition of HUI77 binding to dn-collagen IV, peptide 10 µM was measured for L[Hyp]GL[Hyp]G [synthetic peptide No. 14, LPGLPG (SEQ ID NO: 25)] ?
[reply] 6
